measurement.target: T1, Recombinant protein RHAMM-CT (truncated RHAMM, carboxy terminus containing the HA binding domain, amino acids … (Mus musculus (Mouse), UniProt Q00547 706-766))
T1 construct: Expressed in E. coli BL21 from pPAL7-RHAMM as eXact-tagged protein and purified on Profinity eXact resin (fluoride elution); M.W. 7.1 kDa, pI 10.1; also called recombinant RHAMM
T1 sequence: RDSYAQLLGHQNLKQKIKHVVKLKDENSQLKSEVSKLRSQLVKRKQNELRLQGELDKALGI
procedure.details: SPR (GWC SPRimager II), thiol-containing peptide immobilised on maleimide chip, RHAMM injected at 500, 750, 1000 nM, 1:1 Langmuir fit
Protocol: After peptide screening, GWC SPRimager®II system was used to determine binding kinetic constants. Thiol-containing peptides at 1 nM concentration in milliQ water were immobilized on a maleimide-functionalized gold-plated chip for 3 hours. Excess peptides were removed by washing with milliQ water. […] Data were analyzed and the corresponding dissociation constants (KD) were obtained via non-linear regression fitting to a Langmuir binding model. […]
Square brackets hold non-standard residues; d marks the D form. Ahx = NCCCCCC(=O)O
Each entry below lists one item and its recorded pKd value.
Interpret pKd as the negative base-10 log of the concentration measured in mol/L.

binder	pKd
Ac-C[Ahx]FTEAESNMNDLV-NH2 [peptide 14b (SEQ ID NO: 34), SEQ ID NO: 14 with N-acetyl cysteine modified N-terminus]	7.52
Ac-C[Ahx]VEGEGEEEGEEY-NH2 [peptide 1b (SEQ ID NO: 24), SEQ ID NO: 1 with N-acetyl cysteine modified N-terminus]	7.62

Recorded pKd (binder Ac-C[Ahx]EEDFGEEAEEEA-NH2 [peptide 9b (SEQ ID NO: 28), SEQ ID NO: 9 with N-acetyl cysteine modified N-terminus] ): 7.49
